Experiment: clinical
Type: in vivo, human
Conditions: human, in vivo, 5 mg/m2
Quantity kind: half-life (h)
Give bare numbers, in h.

Reported half-life ( CC[C@@]1(O)C(=O)OCc2c1cc1n(c2=O)Cc2cc3c(CN(C)C)c(O)ccc3nc2-1 ) = 2.7

----------
Assay: clinical
Format: in vivo, human
Details: human, in vivo, 15.7 mg/m2
Quantity kind: Cmax (nM)
Numbers only, in nM.

Reported Cmax ( CC[C@@]1(O)C(=O)OCc2c1cc1n(c2=O)Cc2cc3c(CN(C)C)c(O)ccc3nc2-1 ) = 800

----------
Experiment: clinical
Assay type: in vivo, human
Settings: human, in vivo, 28.4 mg/m2
Quantity kind: Cmax (nM)
Numbers only, in nM.

Reported Cmax ( CC[C@@]1(O)C(=O)OCc2c1cc1n(c2=O)Cc2cc3c(CN(C)C)c(O)ccc3nc2-1 ) = 1670

----------
Experiment: clinical
Type: in vivo, human
Settings: human, in vivo, 5 mg/m2
Quantity kind: Cmax (nM)
Answers are plain numbers, in nM.

Reported Cmax ( CC[C@@]1(O)C(=O)OCc2c1cc1n(c2=O)Cc2cc3c(CN(C)C)c(O)ccc3nc2-1 [topotecan] ) = 200

----------
Assay: clinical
Format: in vivo, human
Conditions: human, in vivo, 12 mg/m2
Quantity kind: Cmax
Put down the number, then write its unit next to it.

Reported Cmax ( CC[C@@]1(O)C(=O)OCc2c1cc1n(c2=O)Cc2cc3c(CN(C)C)c(O)ccc3nc2-1 ) = 610 nM

----------
Assay: clinical
Assay type: in vivo, human
Details: human, in vivo, 5 mg/m2
Quantity kind: AUC (µM·h)
Numbers only, in µM·h.

Reported AUC ( CC[C@@]1(O)C(=O)OCc2c1cc1n(c2=O)Cc2cc3c(CN(C)C)c(O)ccc3nc2-1 ) = 0.27

----------
Test: clinical
Format: in vivo, human
Conditions: human, in vivo, 6.8 mg/m2
Quantity kind: AUC (µM·h)
One number for each entry, in µM·h.

Reported AUC ( CC[C@@]1(O)C(=O)OCc2c1cc1n(c2=O)Cc2cc3c(CN(C)C)c(O)ccc3nc2-1 [topotecan] ) = 0.38

----------
Assay: clinical
Format: in vivo, human
Conditions: human, in vivo, 6.8 mg/m2
Quantity kind: half-life (h)
Answers are plain numbers, in h.

Reported half-life ( CC[C@@]1(O)C(=O)OCc2c1cc1n(c2=O)Cc2cc3c(CN(C)C)c(O)ccc3nc2-1 ) = 3.4

Numbers sourced from paper PMC4521635.
